These compounds were tested on Gamma-aminobutyric acid receptor subunit alpha-1 (Rattus norvegicus, UniProt P62813); AC50 is the recorded read-out. Also: assay procedure not described here.
Sequence (P62813 whole entry): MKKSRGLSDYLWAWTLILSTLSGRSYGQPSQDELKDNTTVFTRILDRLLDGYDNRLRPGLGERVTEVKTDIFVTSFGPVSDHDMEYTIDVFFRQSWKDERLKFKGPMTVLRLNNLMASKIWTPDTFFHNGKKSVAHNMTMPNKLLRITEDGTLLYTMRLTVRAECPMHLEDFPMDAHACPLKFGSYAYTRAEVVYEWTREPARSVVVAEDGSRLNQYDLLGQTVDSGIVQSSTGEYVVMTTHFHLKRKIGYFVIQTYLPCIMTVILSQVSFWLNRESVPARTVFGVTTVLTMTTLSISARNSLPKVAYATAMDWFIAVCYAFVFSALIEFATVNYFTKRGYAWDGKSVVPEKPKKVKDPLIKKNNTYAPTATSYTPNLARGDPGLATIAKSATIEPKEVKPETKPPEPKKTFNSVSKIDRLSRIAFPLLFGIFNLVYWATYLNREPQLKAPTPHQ

Use these answered entries as a reference point.
1. CC(=O)O[C@]1(C(C)=O)CC[C@H]2[C@@H]3C=C(Cl)C4=CC(=O)CC[C@]4(C)[C@H]3CC[C@@]21C [CHLORMADINONE ACETATE] ... > 30 µM
2. CN1CCN(C2=Nc3ccccc3Oc3ccc(Cl)cc32)CC1 ... > 30 µM
3. CC(=O)O[C@]1(C(C)=O)CC[C@H]2[C@@H]3C=C(C)C4=CC(=O)CC[C@@H]4[C@H]3CC[C@@]21C [NOMEGESTROL ACETATE] ... 4.4 µM
4. C#C[C@]1(O)CC[C@H]2[C@@H]3CCC4=CC(=O)CC[C@@H]4[C@H]3C(=C)C[C@@]21CC ... 28 µM
5. CC(C(=O)O)c1ccc(-c2ccccc2)c(F)c1 (stereo not given) ... > 30 µM

# AC50 of CN1CCC(=C2c3ccccc3Sc3ccccc32)CC1 = > 30 µM

# AC50 of COc1cc(N2CCC(N3CCN(C)CC3)CC2)ccc1Nc1ncc(Cl)c(Nc2ccccc2P(C)(C)=O)n1 = > 30 µM

# AC50 of CC[C@@]1(O)C(=O)OCc2c1cc1n(c2=O)Cc2cc3c([N+](=O)[O-])cccc3nc2-1 = > 30 µM

# AC50 of CN(C)CCOC(c1ccccc1)c1ccc(Br)cc1 (stereo not given) [BROMODIPHENHYDRAMINE] = > 30 µM

* * *

These molecules were tested on Mu-type opioid receptor (Homo sapiens, UniProt P35372); AC50 is the recorded read-out. Also: assay procedure not described here.
Sequence (P35372 whole entry): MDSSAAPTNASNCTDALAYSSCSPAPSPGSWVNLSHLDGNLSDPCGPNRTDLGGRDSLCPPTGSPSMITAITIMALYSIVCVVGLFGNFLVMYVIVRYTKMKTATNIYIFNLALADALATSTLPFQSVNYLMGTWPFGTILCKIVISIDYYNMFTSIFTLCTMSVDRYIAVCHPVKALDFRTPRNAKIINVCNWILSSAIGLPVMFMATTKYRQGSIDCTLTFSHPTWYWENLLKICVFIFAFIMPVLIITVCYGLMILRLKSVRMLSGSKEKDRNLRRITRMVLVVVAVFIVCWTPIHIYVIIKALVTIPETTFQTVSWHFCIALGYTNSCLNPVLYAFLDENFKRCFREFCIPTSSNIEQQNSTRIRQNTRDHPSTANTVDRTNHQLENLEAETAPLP

Use these answered entries as a reference point.
1. O=C(O)c1cc(/N=N/c2ccc(O)c(C(=O)O)c2)ccc1O ... > 30 µM
2. N#Cc1ccc2c(c1)N(CCCN1CCC(O)CC1)c1ccccc1S2 ... 4.59 µM
3. Cc1ncc(COP(=O)(O)O)c(C=O)c1O [PYRIDOXAL PHOSPHATE ANHYDROUS] ... > 30 µM
4. Cc1ccccc1C(=O)Nc1ccc(C(=O)N2CCCC(N(C)C)c3ccccc32)cc1 (centres undefined) ... 2.48 µM
5. CC(C)OC(=O)CCC/C=C\C[C@@H]1[C@@H](/C=C/C(F)(F)COc2ccccc2)[C@H](O)C[C@@H]1O ... > 30 µM

# AC50 of O=C(O)CCCCC1CCSS1 (centres undefined) = > 30 µM

# AC50 of FC(F)(F)c1ccc(CNc2ccc(Cc3c[nH]c4ncc(Cl)cc34)cn2)cn1 = 13.4 µM

# AC50 of O=C(O)COc1ccc(C(=O)c2cccs2)c(Cl)c1Cl = > 30 µM

# AC50 of Cc1cc(NC(=O)C2=C(O)c3ccccc3S(=O)(=O)N2C)no1 = > 30 µM

* * *

Overview of recorded AC50 for various compounds
Assay target: Estrogen receptor (Homo sapiens, UniProt P03372); also: assay procedure not described here
Sequence (P03372 whole entry): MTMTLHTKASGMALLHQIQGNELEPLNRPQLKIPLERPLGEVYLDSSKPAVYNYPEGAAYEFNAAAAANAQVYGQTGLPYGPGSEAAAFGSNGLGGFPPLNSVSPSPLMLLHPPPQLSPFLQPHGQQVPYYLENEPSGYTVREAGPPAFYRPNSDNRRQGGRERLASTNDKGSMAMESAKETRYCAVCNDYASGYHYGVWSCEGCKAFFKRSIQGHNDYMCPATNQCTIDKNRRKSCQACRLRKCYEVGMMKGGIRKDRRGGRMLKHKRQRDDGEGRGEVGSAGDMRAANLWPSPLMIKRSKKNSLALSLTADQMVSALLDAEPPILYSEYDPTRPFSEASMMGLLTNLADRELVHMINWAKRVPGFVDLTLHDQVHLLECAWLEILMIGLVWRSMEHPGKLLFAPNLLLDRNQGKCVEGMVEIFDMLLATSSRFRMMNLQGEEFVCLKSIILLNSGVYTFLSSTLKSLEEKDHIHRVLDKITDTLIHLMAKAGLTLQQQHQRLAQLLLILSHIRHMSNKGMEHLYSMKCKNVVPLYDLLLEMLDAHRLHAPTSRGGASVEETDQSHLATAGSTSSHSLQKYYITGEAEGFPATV
Assay type: functional

Use these answered entries as a reference point.
1) N[C@@H](CC(=O)N1CCn2c(nnc2C(F)(F)F)C1)Cc1cc(F)c(F)cc1F ... > 30 µM
2) CC(C)c1nc(N(C)S(C)(=O)=O)nc(-c2ccc(F)cc2)c1/C=C/[C@@H](O)C[C@@H](O)CC(=O)O ... > 30 µM
3) C[C@H](CCC(=O)O)[C@H]1CC[C@H]2[C@@H]3[C@@H](O)C[C@@H]4C[C@H](O)CC[C@]4(C)[C@H]3CC[C@]12C ... > 30 µM
4) C[C@@H](Oc1cc(-c2cnn(C3CCNCC3)c2)cnc1N)c1c(Cl)ccc(F)c1Cl ... > 30 µM
5) CCN1CCN(Cc2ccc(Nc3ncc(F)c(-c4cc(F)c5nc(C)n(C(C)C)c5c4)n3)nc2)CC1 ... > 30 µM
6) COc1cc2nccc(Oc3ccc(NC(=O)C4(C(=O)Nc5ccc(F)cc5)CC4)cc3)c2cc1OC [CABOZANTINIB] ... > 10 µM
7) CN1C[C@H](C(=O)N[C@]2(C)O[C@@]3(O)[C@@H]4CCCN4C(=O)[C@H](Cc4ccccc4)N3C2=O)C=C2c3cccc4[nH]cc(c34)C[C@H]21 ... > 30 µM

Now let's try a different one.
# AC50 of C=CC[C@@H]1/C=C(\C)C[C@H](C)C[C@H](OC)[C@H]2O[C@@](O)(C(=O)C(=O)N3CCCC[C@H]3C(=O)O[C@H](/C(C)=C/[C@@H]3CC[C@@H](O)[C@H](OC)C3)[C@H](C)[C@@H](O)CC1=O)[C@H](C)C[C@@H]2OC [TACROLIMUS ANHYDROUS] = > 30 µM

* * *

Assay target: cGMP-inhibited 3',5'-cyclic phosphodiesterase 3A (Homo sapiens, UniProt Q14432); also: assay procedure not described here
Sequence (Q14432 whole entry): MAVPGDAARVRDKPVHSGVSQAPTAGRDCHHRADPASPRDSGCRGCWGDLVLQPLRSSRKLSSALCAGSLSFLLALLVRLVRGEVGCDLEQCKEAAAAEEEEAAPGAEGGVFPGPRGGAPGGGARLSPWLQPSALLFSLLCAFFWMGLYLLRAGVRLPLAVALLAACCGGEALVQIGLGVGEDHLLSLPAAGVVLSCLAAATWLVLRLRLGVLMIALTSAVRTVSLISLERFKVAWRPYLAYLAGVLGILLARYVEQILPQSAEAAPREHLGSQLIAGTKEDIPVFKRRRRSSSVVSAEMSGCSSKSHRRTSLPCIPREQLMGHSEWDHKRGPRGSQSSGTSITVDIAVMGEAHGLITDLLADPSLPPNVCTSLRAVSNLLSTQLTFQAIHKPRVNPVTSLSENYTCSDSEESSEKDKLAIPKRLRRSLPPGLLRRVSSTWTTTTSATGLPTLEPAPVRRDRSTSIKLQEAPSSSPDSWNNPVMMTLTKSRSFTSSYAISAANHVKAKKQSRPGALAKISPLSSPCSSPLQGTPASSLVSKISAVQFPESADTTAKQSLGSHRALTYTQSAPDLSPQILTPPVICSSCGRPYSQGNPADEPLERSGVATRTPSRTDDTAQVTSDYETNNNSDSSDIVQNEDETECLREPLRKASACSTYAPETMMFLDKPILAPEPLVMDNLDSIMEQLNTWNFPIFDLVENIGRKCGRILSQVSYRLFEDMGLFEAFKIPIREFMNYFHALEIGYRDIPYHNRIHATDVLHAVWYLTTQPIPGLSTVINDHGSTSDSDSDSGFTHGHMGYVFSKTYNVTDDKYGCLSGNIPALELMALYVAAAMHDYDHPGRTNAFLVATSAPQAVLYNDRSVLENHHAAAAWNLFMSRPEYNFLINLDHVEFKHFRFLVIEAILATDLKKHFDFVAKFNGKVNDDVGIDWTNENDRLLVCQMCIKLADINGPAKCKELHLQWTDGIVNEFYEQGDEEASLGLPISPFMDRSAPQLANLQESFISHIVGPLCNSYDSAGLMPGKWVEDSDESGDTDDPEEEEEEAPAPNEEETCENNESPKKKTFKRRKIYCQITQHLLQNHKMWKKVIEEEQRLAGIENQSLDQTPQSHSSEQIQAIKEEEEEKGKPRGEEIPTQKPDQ
Assay type: functional
Overview of recorded AC50 for various compounds

1. CC(=O)SC[C@@H](C)C(=O)N1CCC[C@H]1C(=O)N[C@@H](Cc1ccccc1)C(=O)O ... > 30 µM

# AC50 of C=C[C@H]1C[N@@]2CC[C@H]1C[C@@H]2[C@@H](O)c1ccnc2ccc(OC)cc12 [QUINIDINE] = > 30 µM

# AC50 of NC(=O)CN1CCCC1=O = > 30 µM

# AC50 of CCCCCCCCCCCCCCCCCCCCCC(=O)Nc1ccn([C@@H]2O[C@H](CO)[C@@H](O)[C@@H]2O)c(=O)n1 [ENOCITABINE] = > 30 µM

# AC50 of CCN1CCCC1CNC(=O)c1cc(S(=O)(=O)CC)c(N)cc1OC (stereo not given) [AMISULPRIDE] = > 30 µM

* * *

Assay target: Muscarinic acetylcholine receptor M2 (Homo sapiens, UniProt P08172); also: assay procedure not described here
Sequence (P08172 whole entry): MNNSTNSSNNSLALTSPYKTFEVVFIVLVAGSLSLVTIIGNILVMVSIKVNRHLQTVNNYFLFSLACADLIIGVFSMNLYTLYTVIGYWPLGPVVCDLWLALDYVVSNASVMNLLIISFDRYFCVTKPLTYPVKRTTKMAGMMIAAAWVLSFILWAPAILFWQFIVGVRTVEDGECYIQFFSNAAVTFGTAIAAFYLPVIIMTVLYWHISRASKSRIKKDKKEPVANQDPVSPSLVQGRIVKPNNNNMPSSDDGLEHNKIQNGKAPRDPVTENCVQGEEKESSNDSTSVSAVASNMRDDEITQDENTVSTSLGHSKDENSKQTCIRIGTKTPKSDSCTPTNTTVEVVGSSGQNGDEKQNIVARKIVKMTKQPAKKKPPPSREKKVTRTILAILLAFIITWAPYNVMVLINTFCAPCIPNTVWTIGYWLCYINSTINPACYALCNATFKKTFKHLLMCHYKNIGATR
Value type: AC50

1) CC(C)Cc1ccc(C(C)C(=O)O)cc1 (centres undefined) [IBUPROFEN] ... > 30 µM
2) FC(F)(F)c1ccc(CNc2ccc(Cc3c[nH]c4ncc(Cl)cc34)cn2)cn1 [PEXIDARTINIB] ... 0.496 µM

# AC50 of CCn1cc(C(=O)O)c(=O)c2cc3c(cc21)OCO3 [OXOLINIC ACID] = > 30 µM

# AC50 of CCOC(=O)c1c(C)cc2c(CO)n[nH]c(=O)c2c1C [OXAGRELATE] = > 30 µM

# AC50 of CNC(=O)Oc1cccc2ccccc12 [CARBARIL] = > 30 µM

# AC50 of CC(=O)O[C@]1(C(C)=O)CC[C@H]2[C@@H]3C=C(C)C4=CC(=O)CC[C@@H]4[C@H]3CC[C@@]21C [NOMEGESTROL ACETATE] = > 30 µM

# AC50 of CC(C(=O)O)c1ccc(-c2ccccc2)c(F)c1 (centres undefined) [FLURBIPROFEN] = > 30 µM

# AC50 of CC(C)(O)CNc1nc(Nc2ccnc(C(F)(F)F)c2)nc(-c2cccc(C(F)(F)F)n2)n1 [ENASIDENIB] = > 30 µM

# AC50 of CN1C(=O)/C(=N\NC(N)=S)c2ccccc21 [METHISAZONE] = > 30 µM

* * *

These molecules were tested on Sodium-dependent noradrenaline transporter (Homo sapiens, UniProt P23975); AC50 is the recorded read-out. Also: assay procedure not described here.
Sequence (P23975 whole entry): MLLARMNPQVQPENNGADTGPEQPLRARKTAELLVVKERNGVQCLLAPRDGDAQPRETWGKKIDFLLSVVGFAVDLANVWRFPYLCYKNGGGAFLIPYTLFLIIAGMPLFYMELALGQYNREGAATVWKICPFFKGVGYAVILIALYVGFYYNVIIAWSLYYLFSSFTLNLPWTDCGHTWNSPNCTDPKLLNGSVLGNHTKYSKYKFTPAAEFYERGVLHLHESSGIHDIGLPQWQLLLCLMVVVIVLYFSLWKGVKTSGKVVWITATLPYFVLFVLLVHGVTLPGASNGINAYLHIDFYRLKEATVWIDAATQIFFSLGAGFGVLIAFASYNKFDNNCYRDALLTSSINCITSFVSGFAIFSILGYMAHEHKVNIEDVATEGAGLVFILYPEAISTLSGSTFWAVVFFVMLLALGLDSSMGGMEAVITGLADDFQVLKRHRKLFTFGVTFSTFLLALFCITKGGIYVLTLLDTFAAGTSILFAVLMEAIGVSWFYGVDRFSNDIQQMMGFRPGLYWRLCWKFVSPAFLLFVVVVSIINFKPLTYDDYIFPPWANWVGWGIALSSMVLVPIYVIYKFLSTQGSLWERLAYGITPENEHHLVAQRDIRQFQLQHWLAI

Use these answered entries as a reference point.
1) O=C1CN(/N=C/c2ccc(-c3ccc([N+](=O)[O-])cc3)o2)C(O)=N1 ... > 10 µM
2) O=C1CN=C(c2ccccn2)c2cc(Br)ccc2N1 ... > 10 µM
3) CO[C@H]1/C=C/O[C@@]2(C)Oc3c(C)c(O)c4c(O)c(c(/C=N/N5CCN(C)CC5)c(O)c4c3C2=O)NC(=O)/C(C)=C\C=C\[C@H](C)[C@H](O)[C@@H](C)[C@@H](O)[C@@H](C)[C@H](OC(C)=O)[C@@H]1C ... 20 µM

Now let's try a different one.
Observed AC50, Sodium-dependent noradrenaline transporter (Homo sapiens, UniProt P23975), Nc1cc(-c2ccncc2)c[nH]c1=O : > 30 µM
